assay: chemical genetic growth profiling, strain panel (AID 1159580);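 note: tested at 20 µM; growth read once vehicle control cultures reached saturation at 30 °C; 1 = growth at the plate median or of vehicle wells; lower values mean less growth of the strain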; conditions: S. cerevisiae deletion strains, growth OD, locus YCL016C, strain dcc1, active compounds read low
The campaign covered roughly 5,500 compounds. About 2,000 (36%) were called active. Not shown: some 18% with an inconclusive outcome. The list shows a part of the results.

molecule	normalized growth
O=C(NC(=O)c1c(F)cccc1F)Nc1ccc(Cl)cc1	1.02
C/C=C/c1ccc2c(c1)OCO2	1.02
O=C(OC1Cc2c(O)cc(O)cc2OC1c1cc(O)c(O)c(O)c1-c1c(C2Oc3cc(O)cc(O)c3CC2OC(=O)c2cc(O)c(O)c(O)c2)cc(O)c(O)c1O)c1cc(O)c(O)c(O)c1 (stereo not given)	1.01
CCN(CC)CCNC(=O)c1cc(S(C)(=O)=O)ccc1OC	0.971
O=C(O[C@@H]1Cc2c(O)cc(O)cc2O[C@@H]1c1cc(O)c(O)c(O)c1-c1c([C@H]2Oc3cc(O)cc(O)c3C[C@H]2O)cc(O)c(O)c1O)c1cc(O)c(O)c(O)c1	0.988
Cc1ccc(/C(=C\CN2CCCC2)c2ccccn2)cc1	0.975
CC(=O)c1c(O)c(C)c(O)c2c1OC1=CC(=O)C(C(C)=O)C(=O)C12C (stereo not given)	0.987
COc1cc(OC)c2c(=O)c(-c3ccccc3)c(C)oc2c1OC	0.987
COc1c2c(cc3c1OCO3)CCN(C)C2	1.01
CCOC(=O)c1oc2c(OC)c(O)cc(O)c2c(=O)c1-c1cc(OC)c(OC)c(OC)c1	0.977
Nc1ncnc2c1ncn2[C@@H]1O[C@H](CO)[C@@H](O)[C@H]1O	0.953
CCN(CC)CCOc1ccc(/C(=C(\Cl)c2ccccc2)c2ccccc2)cc1	0.203
CC/C(=C(\c1ccccc1)c1ccc(OCCN(C)C)cc1)c1ccccc1	0.122
Nc1ncnc2c1ncn2C1C[C@H](O)[C@@H](CO)O1 (stereo not given in full)	1.01
CC(=O)O[C@H]1C[C@@H](OC(C)=O)C(C)(C)C2C[C@@H](OC(C)=O)[C@@]3(C)C4=CC(=O)O[C@@H](c5ccoc5)[C@]4(C)CCC3[C@]21C (stereo not given in full)	0.997

---

experiment: chemical genetic growth profiling, strain panel (AID 1159580); details: S. cerevisiae deletion strains, growth OD, strain wtn01, active compounds read low
The whole screen tested about 5,500 compounds, of which about 2,000 (36%) were called active. About 18% were inconclusive and are not listed. This is one part of the list.
observed-property: normalized growth

                                    molecule  measured_number
 0           C[C@H](N)[C@H](O)c1ccc(O)c(O)c1            0.971
 1  CCC[C@H]1CC2=C(C[C@@H](CC)CC3=C1C(=O)OC3=O)C(=O)OC2=O             1.06
 2  C1CCN2C[C@@H]3C[C@H](CN4CCCC[C@@H]34)[C@H]2C1             1.01
 3                   C[n+]1cccc(C(=O)[O-])c1             1.01
 4  NCC(O)c1ccc(O)cc1 (configuration not stated)            0.969
 5            N[C@@H](Cc1ccc(O)c(O)c1)C(=O)O             1.01
 6  CC(C)NCC(O)c1ccc(O)c(O)c1 (configuration not stated)            0.993
 7     CCN(CC)CCNC(=O)c1cc(S(C)(=O)=O)ccc1OC             1.01
 8  CCCCC1=NC2(CCCC2)C(=O)N1Cc1ccc(-c2ccccc2-c2nn[nH]n2)cc1             1.02
 9  CC1(C)CC2C1(O)CCC1(C)C=CC(O)C21CO (configuration not stated)             1.02
10      CCOP(=S)(OCC)SCn1c(=O)oc2cc(Cl)ccc21             0.99
11  NCCCC[C@H](N[C@@H](CCc1ccccc1)C(=O)O)C(=O)N1CCC[C@H]1C(=O)O            0.998

---

assay: chemical genetic growth profiling, strain panel (AID 1159580); conditions: S. cerevisiae deletion strains, growth OD, locus YDR069C, strain doa4
In all, about 5,500 compounds went through this assay and about 2,000 (36%) were called active. Inconclusive results (about 18%) are left out. Cut-off read from the data, not from the text of the source: active = normalized growth mostly below about 0.91 (no sharp cut-off); inconclusive = no clear call, values can overlap the other calls; inactive = mostly above about 0.92. The list shows a part of the results.
Possible outcomes: t for active, f for inactive

                                   compound  answer_label
0     O=[N+]([O-])c1ccc(O)c([N+](=O)[O-])c1             f
1                   Nc1ccc([As](=O)(O)O)cc1             f
2  Nc1ncnc2c1ncn2C1C[C@H](O)[C@@H](CO)O1 (stereo partly specified)             f
3  Nc1ncnc2c1ncn2C1O[C@H](COP(=O)(O)O)[C@@H](O)[C@H]1O (stereo partly specified)             f
4            CC(=O)Nc1cc([As](=O)(O)O)ccc1O             f
5                 CC(=O)Oc1ccc(Cl)c2cccnc12             t

---

test: chemical genetic growth profiling, strain panel (AID 1159580); settings: S. cerevisiae deletion strains, growth OD, locus YOR106W, strain vam3, active compounds read low
Among all 5,500 compounds or so, about 2,000 (36%) were called active. Roughly 18% stayed inconclusive and do not appear here. This is one part of the list.
Heads up, the class ranges for normalized growth are range A (below 0.7), range B (0.7 to below 1), range C (1 or more)

>>> print(df.to_string())
                                   molecule  answer_label
0  CCN(CC)CCOc1ccc(/C(=C(\Cl)c2ccccc2)c2ccccc2)cc1       range A
1  C=CC(C1=CC(=O)C(OC)=CC1=O)c1ccccc1 (stereo unspecified)       range B
2                   Nc1ccc([As](=O)(O)O)cc1       range C
3                   O=C(O)/C=C/C=C/c1ccccc1       range B
4  C=C[C@@H](C1=CC(=O)C(OC)=C(OC)C1=O)c1ccccc1       range A
5  C=CC(C1=CC(=O)C(OC)=CC1=O)c1ccc(OC)cc1 (stereo unspecified)       range A

---

experiment: chemical genetic growth profiling, strain panel (AID 1159580);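 note: tested at 20 µM; growth read once vehicle control cultures reached saturation at 30 °C; 1 = growth at the plate median or of vehicle wells; lower values mean less growth of the strain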; conditions: S. cerevisiae deletion strains, growth OD, locus YPL153C, strain RAD53
The whole screen tested about 5,500 compounds, of which about 2,000 (36%) were called active. About 18% were inconclusive and are not listed. Cut-off read from the data, not from the text of the source: active = normalized growth mostly below about 0.91 (no sharp cut-off); inconclusive = no clear call, values can overlap the other calls; inactive = mostly above about 0.92. The list shows a part of the results.
Possible outcomes: 1 (active), -1 (inactive)

In [3]: df
Out[3]:
                                   compound  answer_label
0  OC(CNCc1ccc(Cl)cc1)CO/N=C\C1=C(Cl)c2cc(Cl)ccc2OC1 (stereo unspecified)            -1
1  Cc1nn(Cc2ccc(C(=O)Sc3ccc(C(F)(F)F)cn3)o2)c(C)c1Br            -1
2        FC(F)(F)c1cccc(NNC(=S)Nc2ccccc2)c1            -1
3  O=[N+]([O-])c1cc(Br)cnc1Sc1nnc(SCC2CC2)s1             1
4  Cc1c2c(=O)[nH]ncc2c(-c2ccccc2)n1-c1ccc([N+](=O)[O-])cc1            -1
5         FC(F)(F)c1cccc(NC(=S)Nc2ccccc2)c1            -1

---

assay: chemical genetic growth profiling, strain panel (AID 1159580);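 note: tested at 20 µM; growth read once vehicle control cultures reached saturation at 30 °C; 1 = growth at the plate median or of vehicle wells; lower values mean less growth of the strain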; settings: S. cerevisiae deletion strains, growth OD, locus YAL030W, strain snc1, active compounds read low
The whole screen tested about 5,500 compounds, of which about 2,000 (36%) were called active. Inconclusive results (about 18%) are left out. Some of the results follow.
observed-property: normalized growth

                                   compound  observed_property  measured_number
0      CCOP(=S)(OCC)SCn1c(=O)oc2cc(Cl)ccc21  normalized growth            0.947
1  CC1(C)C(C(Cl)Cl)C2(Cl)C(Cl)C(Cl)C1(Cl)C2(Cl)Cl (stereo not given)  normalized growth            0.984
2  CCCC(C)C1(CC)C(=O)N=C(S)NC1=O (stereo not given)  normalized growth            0.983
3  CCCC(C)C1(CC)C(=O)NC(=O)NC1=O (stereo not given)  normalized growth                1
4                   Oc1c(Cl)cc(Cl)c2cccnc12  normalized growth           0.0606

---

experiment: chemical genetic growth profiling, strain panel (AID 1159580);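 note: tested at 20 µM; growth read once vehicle control cultures reached saturation at 30 °C; 1 = growth at the plate median or of vehicle wells; lower values mean less growth of the strain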; conditions: S. cerevisiae deletion strains, growth OD, locus YHR205W, strain SCH9, active compounds read low
The campaign covered roughly 5,500 compounds. About 2,000 (36%) were called active. Another 18% or so got no clear call; they are omitted. The list shows a part of the results.
This listing pairs molecules with measured normalized growth.
observed-property: normalized growth

In [3]: df
Out[3]:
                                   molecule  observed_property  measured_number
0         O=C(NCc1ccncc1)c1ccc(-n2cccn2)cc1  normalized growth            0.985
1                 Cc1cccc(Cl)c1/C=N\NC(N)=S  normalized growth             1.02
2  CCOC(=O)/C(=N/Nc1c(Cl)cccc1Cl)c1csc(N)n1  normalized growth            0.994
3  O=C1CSC(c2cccnc2)N1c1ccc(Cl)cc1Cl (stereo unspecified)  normalized growth             0.98
4  O=C(Nc1ccc(N2CCOCC2)cc1)c1ccc(-n2cccn2)cc1  normalized growth            0.982
5  O=[N+]([O-])c1ccccc1CS(=O)(=O)c1nc2ccccc2s1  normalized growth            0.933
